Please respond with reported ζ-average for every item in the list.
Assay: Average particle diameter, PdI and zeta potential of lipid nanoparticles (dynamic light scattering)
Assay type: physicochemical
Settings: TTR-RNP-ssODN-loaded LNP; sgTTR-G211; CL4H6/DSPC/cholesterol/PEG-DMG 50/10/40/3.5 mol%; Table 13
Answers are plain numbers, in nm.

Past entries and their recorded results:
Q: Using the record for ssODN-TTR_3-24° C.-5′: ssODN pairing with sgTTR-G211, mismatch on one side; SEQ ID NO 19 (nucleic acid) DNA: AAAAAAAAAAAAAAAAAAAAAAAAAAAAAAAAAAAAAAAAAAAAAAAAAAAAAAAATGCTGTAGTAAAAAAAAATTAAAAAAAAAAAAAAAAAAAAAAAAAAAAAAAAAAAAAAAAAAAAAAAAAAAAAAAA , report its ζ-average.
Result: 123.5

Q: Fill blank: measured ζ-average of the molecule ssODN-TTR_3-50° C.-5′: ssODN pairing with sgTTR-G211, mismatch on one side; SEQ ID NO 21 (nucleic acid) DNA: AAAAAAAAAAAAAAAAAAAAAAAAAAAAAAAAAAAAAAAAAAAAAAAAAAAAAAAAAAATGTAGACGTGGCTGTAAAAAAAAAAAAAAAAAAAAAAAAAAAAAAAAAAAAAAAAAAAAAAAAAAAAAAAAAA is ____.
Result: 124.9

Let us examine a further case.
Q: I am curious: what ζ-average value has been reported for ssODN-TTR_3-24° C.-3′: ssODN pairing with sgTTR-G211, mismatch on one side; SEQ ID NO 18 (nucleic acid) DNA: AAAAAAAAAAAAAAAAAAAAAAAAAAAAAAAAAAAAAAAAAAAAAAAAAAAAAAAAAAAAAATATAAAGGCTGTAAAAAAAAAAAAAAAAAAAAAAAAAAAAAAAAAAAAAAAAAAAAAAAAAAAAAAAAAA ?
Result: 140.1
